B1: VH:VL chains; a variant is named by its letters at X, in order (parent)
chain 1: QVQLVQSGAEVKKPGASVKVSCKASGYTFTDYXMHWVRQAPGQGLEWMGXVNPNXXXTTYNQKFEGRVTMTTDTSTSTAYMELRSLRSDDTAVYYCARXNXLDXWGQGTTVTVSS
chain 2: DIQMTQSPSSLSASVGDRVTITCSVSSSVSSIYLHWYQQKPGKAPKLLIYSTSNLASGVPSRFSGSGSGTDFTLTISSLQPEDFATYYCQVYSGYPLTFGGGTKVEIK

variants of: B1; test: yeast display scFab, FACS + sequencing; conditions: with MET
The list shows a part of the results. The hit rate among all sequences tested is not known here.
measured-property: antigen binding call

Recorded antigen binding call, per entry:
SRGRGFVA = no binding
AKTGDSSD = no binding
YRGRSASV = binds
SAAGGAAV chain 1 L45S = no binding
DAGGASSV = no binding

Now for a further variant.
Entry DKGEGDGA : reported antigen binding call = ? no binding
